Cited source for all entries: PubChem BioAssay (NCI)

System: TK-10 renal
Test: NCI-60 one-dose screen, 48 h (100 = growth as untreated, 0 = no growth, -100 = all killed)
Details: 10 µM unless noted
About 83,000 compounds went through this panel and 20% of them were active in at least one assay; those are over-represented in the sample as a whole.
Doc: threshold 90% (exclusive). Items with growth beneath it return true; others return false.

molecule	class label
CS(=O)c1nccc(-c2c(-c3ccc(F)c(OCCc4ccc(F)cc4)c3)nc3sccn23)n1 (stereo unspecified)	false
O=C(/C=C/Nc1ccc(S(=O)(=O)O)cc1)c1ccc(F)cc1	false
O=C(CCCCCCN1CC(=O)N2[C@@H](c3cccc(Cl)c3)c3[nH]c4ccccc4c3C[C@H]2C1=O)NO	true
COc1cc2oc(-c3cccc(NC(=O)c4cc(NC(=O)[C@H](C)N)ccc4Cl)c3)cc(=O)c2c(OC)c1OC	false
COc1ccc2c(C3=C(c4c[nH]c5ccccc45)C(=O)N(O)C3=O)coc2c1	false
COc1ccc2oc3c4[nH]c5ccccc5c4c4c(c3c2c1)C(=O)N(O)C4=O	false
O=C(NNc1nc2cc(F)c(F)cc2n2cccc12)c1ccncn1	true
CC(C)c1nn(-c2ccccc2)c(N2CCCCC2)c1/C=N/NC(N)=S	false
O=C(Nc1cccc(-c2nc(-c3ccc(NC(=O)c4cccs4)cc3Cl)no2)c1)Nc1ccc(NC(=O)C2CC2)c(C(F)(F)F)c1	true
C[C@H]1[C@H](C)CC[C@]2(COC(=O)c3cccnc3)CC[C@]3(C)C(=CC[C@@H]4[C@@]5(C)CCCNC(C)(C)[C@@H]5CC[C@]43C)[C@H]12	true
CCN(CC)CCN1C(=O)c2c(c3c4cc(Br)ccc4[nH]c3c3ccc4ccccc4c23)C1=O	true
O=C(NNc1nc2cc(F)cc(F)c2n2cccc12)c1ccncn1	true
Cc1cn(-c2cc(NC(=O)c3cncc(C#Cc4cnc5ccc(O[C@H]6CCOC6)nn45)c3)cc(C(F)(F)F)c2)cn1	false
O=S(=O)(Nc1ccc(C2CC2)cc1)c1ccc(-c2cnc(C3CC3)o2)cc1	false
Cc1ccc(NC(=O)c2cccc(CN3CCN(C)CC3)c2)cc1Oc1ccc(-c2[nH]nc3ncnc(N)c23)cc1	false
O=C(/C=C1\C=CN(CCCCO)c2ccccc21)n1ccc2ccccc21	false
O=C1c2c(c3c4cccnc4[nH]c3c3ccc4ccccc4c23)C(=O)N1CCN1CCNCC1	false
COc1cc(O)c2c(c1)/C=C/C[C@H](O)[C@H](O)C(=O)/C=C\C[C@H](C)OC2=O	true
O=C(Nc1ccc(Cl)cc1)Nc1nc2ccc([N+](=O)[O-])cc2s1	true
Cn1cc(-c2nn3c(=O)cc(-c4ccccc4)nc3s2)c2cc(F)ccc21	true
COc1ccccc1/C=C/C=N/NC1=NC2C(S1)N(C)C(=O)N2c1ccccc1 (stereo unspecified)	true
COc1ccc(-c2oc3cc(O)cc(O)c3c(=O)c2OC)cc1O	true
CN1CCN(c2ccc(C(=O)/C=C/c3ccc(Cl)c(C(F)(F)F)c3)cc2)CC1	false
O=S(=O)(Nc1ccc2c(c1)OC(F)(F)O2)c1ccc(-c2cnc(C3CC3)o2)cc1	true
CS(=O)c1nccc(-c2c(-c3ccc(F)c(OCc4ccc(F)cc4)c3)nc3sccn23)n1 (stereo unspecified)	false
C=CCn1c(SCC(=O)Nc2cccc(C(=O)/C=C/c3cccc([N+](=O)[O-])c3)c2)nc2ccccc2c1=O	false
Oc1ccc(CSc2nnc(-c3ccncc3)o2)c2cccnc12	true
Cc1csc(Nc2cccc(Nc3nc(C)cs3)c2)n1	false
C=C(C)[C@@H]1CC[C@]2(C(=O)NCCCN(CCC#N)CCC#N)CC[C@]3(C)[C@H](CC[C@@H]4[C@@]5(C)CCC(=O)C(C)(C)[C@@H]5CC[C@]43C)[C@@H]12	false
CNC(=O)c1cc(Oc2ccc3nc(NC(=O)c4ccc(CN5CCCN(C)CC5)c(C(F)(F)F)c4)sc3c2)ccn1	true
C=CCn1c(SCC(=O)Nc2cccc(C(=O)/C=C/c3ccc(OC)c(OC)c3)c2)nc2ccccc2c1=O	false
CC(C)C[C@H]1C(=O)O[C@H](C(C)C)C(=O)N(C)[C@@H](C(C)C)C(=O)O[C@H](C(C)C)C(=O)N(C)[C@@H](C(C)C)C(=O)O[C@H](C(C)C)C(=O)N1C	true
NC(N)=NS(=O)(=O)c1ccc(N=NC2C(=O)NN(c3ccccc3)C2=O)cc1 (stereo unspecified)	false

---

Test system: NCI-H226 lung
Test: NCI-60 one-dose screen, 48 h
Conditions: 10 µM unless noted
Compounds without any hit were thinned out: in the full panel of roughly 83,000, 20% have a hit. Calls of active or inactive are those of the source. Rule for the calls: active = growth percent below 10; inactive = the rest.
Labels: class 1 (active), class 0 (inactive)

molecule	class label
Cc1nn(-c2ccc(Cl)cc2)c(C)c1N=Nc1ccc2oc(=O)ccc2c1	class 0
CC(=O)NC(C)(C)C(=O)N1CCC[C@H]1C(=O)NC(C)(C)C(=O)N[C@@H](C)C(=O)NC(C)(C)C(=O)N[C@@H](C)C(=O)N[C@@H](CCC(N)=O)C(=O)NC(C)(C)C(=O)N[C@H](C(=O)NC(C)(C)C(=O)NCC(=O)N[C@@H](CC(C)C)C(=O)NC(C)(C)C(=O)N1CCC[C@H]1C(=O)N[C@H](C(=O)NC(C)(C)C(=O)NC(C)(C)C(=O)N[C@@H](CCC(N)=O)C(=O)N[C@@H](CCC(N)=O)C(=O)N[C@H](CO)Cc1ccccc1)C(C)C)C(C)C	class 0
C/C=C/C=C1\C[C@H]2CO[C@H](O2)C1=O	class 0
CC(=O)NC(C)(C)C(=O)N[C@@H](C)C(=O)NC(C)(C)C(=O)N[C@@H](C)C(=O)NC(C)(C)C(=O)N[C@@H](C)C(=O)N[C@@H](CCC(N)=O)C(=O)NC(C)(C)C(=O)N[C@H](C(=O)NC(C)(C)C(=O)NCC(=O)N[C@@H](CC(C)C)C(=O)NC(C)(C)C(=O)N1CCC[C@H]1C(=O)N[C@H](C(=O)NC(C)(C)C(=O)NC(C)(C)C(=O)N[C@@H](CCC(N)=O)C(=O)N[C@@H](CCC(N)=O)C(=O)N[C@H](CO)CC1CCCCC1)C(C)C)C(C)C	class 0
Cc1ccc(NC(=O)N[C@@H](Cc2cc(F)cc(F)c2)C(=O)NC2C(=O)N3CCC[C@H]3C(=O)N3CCCC[C@H]3C(=O)N[C@@H](C)C(=O)N3C[C@H](C)C[C@H]3C(=O)O[C@H]2C)c(F)c1 (some centres undefined)	class 1
COc1cc(O)c2c(c1)/C=C/C[C@H](O)[C@H](O)C(=O)/C=C\C[C@H](C)OC2=O	class 0
CC(C)=CCc1c2c(c(O)c3c1O[C@]14C(=C[C@@H]5C[C@H]1C(C)(C)O[C@@]4(C/C=C(/C)C(=O)O)C5=O)C3=O)CC(O)C(C)(C)O2 (some centres undefined)	class 0
COc1ccc(/C(C)=C(\c2ccc(Cl)cc2)c2ccc(OCCN)cc2)cc1	class 0
CC1OC(O[C@@H]2[C@H](O)C(CO)OC(O[C@H]3COC(O[C@H]4CC[C@]5(C)[C@H]6CC[C@]78OC[C@@]9(CCC(C)(C)C[C@H]97)[C@H](O)C[C@@]8(C)[C@]6(C)CC[C@H]5C4(C)C)[C@@H](OC4OC(CO)[C@@H](O)[C@@H](O)[C@@H]4O)[C@@H]3O)[C@H]2OC2OC[C@@H](O)[C@@H](O)[C@@H]2O)[C@@H](O)[C@@H](O)[C@H]1O (some centres undefined)	class 1

---

Tested on: DU-145 prostate
Assay: NCI-60 one-dose screen, 48 h (100 = growth as untreated, 0 = no growth, -100 = all killed)
Conditions: 10 µM unless noted
About 83,000 compounds went through this panel and 20% of them were active in at least one assay; those are over-represented in the sample as a whole.
In plain terms, low growth, meaning strictly below 20%, gives label 1, and everything else gives label 0.

given smiles	class label
Oc1ccccc1/C=N/Nc1nc(N/N=C/c2ccccc2O)nc(N2CCOCC2)n1	label 0
O=C1/C(=C/c2ccccc2[N+](=O)[O-])Oc2ccc(O)cc21	label 0
CCn1c2ccc(/C=N/OCCCN(C)C)cc2c2cc(/C=N/OCCCN(C)C)ccc21	label 1
O=c1oc2ccc(-c3ccc(F)cc3F)cc2c(=O)n1-c1cccc(C(F)(F)F)c1	label 1
N/C(=N\c1nc2ccc([N+](=O)[O-])cc2s1)C(Cl)(Cl)Cl	label 1

---

molecules and their reported growth
Test system: NCI-H226 lung
Assay: NCI-60 one-dose screen, 48 h (100 = growth as untreated, 0 = no growth, -100 = all killed)
Details: 10 µM unless noted
About 83,000 compounds went through this panel and 20% of them were active in at least one assay; those are over-represented in the sample as a whole.
measured parameter: growth (%)

molecule	target under test	reported
CN1CCN(c2ccc3c(c2)nc(NNC(=O)c2ccncn2)c2cccn23)CC1	NCI-H226 lung	44.5
N=c1c2cc(-c3ccccc3)oc2ncn1/N=C/c1ccccc1	NCI-H226 lung	98.9
C/C(=C(/c1ccc(O)cc1)c1ccc(OCCN2CCCCCC2)cc1)c1ccccc1	NCI-H226 lung	75.7
COC[C@@]1(C)CC[C@]2(C)CC[C@]3(C)C(=CC[C@@H]4[C@@]5(C)CCCNC(C)(C)[C@@H]5CC[C@]43C)C2C1 (some centres undefined)	NCI-H226 lung	81.3
CCN1CCN(c2cc(C(=O)Nc3nc4ccc(Oc5ccnc(C(=O)NC)c5)cc4s3)cc(C(F)(F)F)c2)CC1	NCI-H226 lung	90.8
O=C1c2c(O)cc(O)cc2O[C@@H](c2ccc(O)cc2)[C@@H]1c1c(O)cc(O)c2c(=O)cc(-c3ccc(O)c(O)c3)oc12	NCI-H226 lung	76.6
CN1C(=O)N(C)C2C1NN=c1s/c(=C\c3ccccn3)c(=O)n12 (centres undefined)	NCI-H226 lung	99.7
CC(=O)Nc1ccc(NC(=O)Nc2cccc(-c3nc(-c4ccc(NC(=O)c5cccs5)cc4Cl)no3)c2)cc1C(F)(F)F	NCI-H226 lung	-41.2
Cn1c2ccccc2c2c3c(c4c5ccc(Br)cc5oc4c21)C(=O)N(O)C3=O	NCI-H226 lung	70.9
